Measured values drawn from patent US20220177583A1 for this set.

Recorded pEC50 values for a group of binders are listed next.
study-target: human CLDN6 fused to GFP, expressed on engineered HEK293T cells (human) (UniProt P56747)
test-name: FACS dose curve, labelled mAb, HEK293T-CLDN6-mGFP cells
The meaning of pEC50 here: minus log10 of the concentration in molar units.

Past entries and their recorded results:
binder: AB11 (antibody, V domains shown) VH: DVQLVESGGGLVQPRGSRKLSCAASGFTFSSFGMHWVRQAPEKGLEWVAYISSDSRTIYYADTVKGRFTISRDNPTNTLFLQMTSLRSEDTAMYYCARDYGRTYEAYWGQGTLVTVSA VL: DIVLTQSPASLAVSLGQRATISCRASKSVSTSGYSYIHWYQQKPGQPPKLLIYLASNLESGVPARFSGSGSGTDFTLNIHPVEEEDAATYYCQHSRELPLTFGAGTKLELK
pEC50: 5.77
--
binder: AB6 (antibody, V domains shown) VH: DVQLQESGPGLVKSSQSLSLTCSVTGYSITSGYYWKWIRQFPGNKLEWMGYISYDGGINYNPSLKNRISITRDTSKNQFFLKLNSVTTEDTAKYYCARFGKGAMDYWGQGTSVTVSS VL: AIVMFQSPSSLVVSAGEKVTMSCKSSQSLLNSRTRKNYLAWYQQKPGQSPKLLIYWASTRESGVPDRFTGSGSGTDFTLTISSVQAEDLAVYYCKQSYYLYTFGGGTKLEIK
pEC50: 5.85
--
binder: AB3 (antibody, V domains shown) VH: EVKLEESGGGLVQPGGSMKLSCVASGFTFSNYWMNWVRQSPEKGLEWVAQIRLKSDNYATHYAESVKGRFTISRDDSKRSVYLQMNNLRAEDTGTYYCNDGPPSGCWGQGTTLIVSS VL: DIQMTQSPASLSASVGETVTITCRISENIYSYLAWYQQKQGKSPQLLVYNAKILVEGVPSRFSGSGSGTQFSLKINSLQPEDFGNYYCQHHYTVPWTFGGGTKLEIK
pEC50: 6.22

Q) // query pEC50 value for entry AB9 (antibody, V domains shown) VH: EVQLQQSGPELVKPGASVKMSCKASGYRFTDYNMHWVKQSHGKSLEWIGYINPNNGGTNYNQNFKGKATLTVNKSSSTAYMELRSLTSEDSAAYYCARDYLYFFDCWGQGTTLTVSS VL: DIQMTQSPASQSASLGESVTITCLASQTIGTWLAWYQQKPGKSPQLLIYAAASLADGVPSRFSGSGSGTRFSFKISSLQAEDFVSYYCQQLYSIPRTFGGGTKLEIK
A) 5.57

Q) Lookup AB4 (antibody, V domains shown) VH: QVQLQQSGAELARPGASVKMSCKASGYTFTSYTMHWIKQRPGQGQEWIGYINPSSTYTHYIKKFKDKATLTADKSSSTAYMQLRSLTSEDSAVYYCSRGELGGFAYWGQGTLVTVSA VL: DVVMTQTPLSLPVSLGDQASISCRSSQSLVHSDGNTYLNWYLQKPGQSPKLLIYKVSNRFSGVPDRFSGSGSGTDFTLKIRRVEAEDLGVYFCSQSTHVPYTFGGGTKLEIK
A) 7.77

Q) # repeat for AB7 (antibody, V domains shown) VH: EVQLQQSGPELVKPGASMKISCKASGYSFTGYTMNWVKQSHGKNLEWIGLINPYNGGTNYNQKFKGKATLTVDKSSSTAYMELLSLTSEDSAVYYCARGVYDYDGFTYWGQGTLVTVSA VL: QIVLTQSPAIMSASLGDRVTMTCTASSSVSSSYLHWYQQKPGSSPKLWIYSTSNLASGVPARFSGSGSGTSYSLTISSMEAEDAATYYCHQYHRSPPTFGSGTKLEIK
A) 6.24

Q) Also AB19 (antibody, V domains shown) VH: EVQLQQSGPELVKPGGSMKISCKASGYSFTGYTMNWVKRSHGKNLEWIGLINPYNGVTTYNQNFKGKATLAVDKSSSTAYMELLGLTSEDSAVYYCTRDPLYYGYRDSTMDYWGQGTSVTVSS VL: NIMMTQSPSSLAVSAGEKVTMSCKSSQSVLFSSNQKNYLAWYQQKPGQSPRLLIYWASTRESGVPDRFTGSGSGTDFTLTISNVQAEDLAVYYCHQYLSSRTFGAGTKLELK ?
A) 5.30
